targetDesc: Recombinant human integrin ανβ3 (Homo sapiens, UniProt P05106+P06756)
Sequence (P06756 31-992 limits assumed): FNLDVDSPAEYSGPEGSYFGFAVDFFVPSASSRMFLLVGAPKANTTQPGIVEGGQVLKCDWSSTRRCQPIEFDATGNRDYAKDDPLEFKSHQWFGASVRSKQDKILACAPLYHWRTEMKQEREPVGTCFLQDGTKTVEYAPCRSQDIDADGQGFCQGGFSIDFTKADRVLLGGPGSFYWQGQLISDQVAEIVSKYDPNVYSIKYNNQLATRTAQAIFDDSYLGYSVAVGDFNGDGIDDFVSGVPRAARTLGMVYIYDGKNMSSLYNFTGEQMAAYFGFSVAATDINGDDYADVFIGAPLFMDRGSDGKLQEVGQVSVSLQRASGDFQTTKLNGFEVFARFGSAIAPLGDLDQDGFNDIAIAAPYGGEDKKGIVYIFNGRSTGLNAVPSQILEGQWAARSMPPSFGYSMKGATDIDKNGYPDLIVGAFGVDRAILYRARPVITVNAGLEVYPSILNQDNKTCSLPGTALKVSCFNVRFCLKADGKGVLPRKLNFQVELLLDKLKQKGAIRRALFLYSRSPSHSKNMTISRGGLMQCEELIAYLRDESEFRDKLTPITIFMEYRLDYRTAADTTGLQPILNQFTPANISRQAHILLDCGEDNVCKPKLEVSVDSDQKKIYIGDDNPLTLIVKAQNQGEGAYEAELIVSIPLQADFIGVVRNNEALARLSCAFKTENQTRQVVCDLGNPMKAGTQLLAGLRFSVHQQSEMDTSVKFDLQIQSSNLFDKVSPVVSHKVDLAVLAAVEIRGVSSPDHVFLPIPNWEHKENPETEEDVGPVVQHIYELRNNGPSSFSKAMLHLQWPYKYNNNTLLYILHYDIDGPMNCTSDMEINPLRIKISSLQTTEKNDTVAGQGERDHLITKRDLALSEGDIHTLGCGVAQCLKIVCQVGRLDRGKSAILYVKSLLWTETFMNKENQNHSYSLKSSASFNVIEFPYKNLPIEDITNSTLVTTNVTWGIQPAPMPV
Sequence (P05106 27-718 limits assumed): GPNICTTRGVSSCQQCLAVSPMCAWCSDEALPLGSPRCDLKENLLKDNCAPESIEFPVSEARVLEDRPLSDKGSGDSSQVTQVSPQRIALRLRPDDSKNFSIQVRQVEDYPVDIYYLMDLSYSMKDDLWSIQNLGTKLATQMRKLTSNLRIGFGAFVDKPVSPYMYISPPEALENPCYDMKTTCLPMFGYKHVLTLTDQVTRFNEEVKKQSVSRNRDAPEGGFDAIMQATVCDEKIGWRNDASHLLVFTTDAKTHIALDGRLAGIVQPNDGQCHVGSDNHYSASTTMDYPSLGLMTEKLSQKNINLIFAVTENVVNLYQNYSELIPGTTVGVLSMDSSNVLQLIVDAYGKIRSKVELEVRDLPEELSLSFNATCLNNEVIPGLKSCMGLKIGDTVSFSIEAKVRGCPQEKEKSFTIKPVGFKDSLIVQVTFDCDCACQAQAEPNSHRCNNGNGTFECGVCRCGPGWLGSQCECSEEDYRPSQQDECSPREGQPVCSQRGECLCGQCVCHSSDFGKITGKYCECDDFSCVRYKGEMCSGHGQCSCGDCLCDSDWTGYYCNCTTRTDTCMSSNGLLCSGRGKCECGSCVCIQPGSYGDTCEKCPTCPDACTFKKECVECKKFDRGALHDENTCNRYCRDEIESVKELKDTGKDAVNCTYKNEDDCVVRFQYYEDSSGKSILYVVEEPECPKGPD
experimentDescription: Solid Phase Receptor Assay (SPRA) for ανβ3 function
testSettings: plate-bound human vitronectin; read-out: αvβ3 SPRA IC50
Procedure: C. Solid Phase Receptor Assay (SPRA) for ανβ3 Function Wells were washed 3 times with 150 μL TBS+ and then 150 μL of blocking buffer (TBS+ with 1% bovine serum albumin, Sigma A7906) was added. The plate was incubated for 1 hr at 37° C. and then washed 3× with TBS+ buffer. […] 25 μL of 1.0 M phosphoric acid was added as a stop solution and the plates were read at 450 nm using a Spectramax plate reader.
testReadout: IC50 (nM)
Your answer is read as nM, so omit the unit and give the number.

Previously resolved entries follow.
Cn1nc(CC(CC(=O)O)c2cc(F)cc(Cl)c2)cc1OCCc1ccc2c(n1)NCCC2 (stereo not shown) | 4
Cn1nc(CC(CC(=O)O)c2cccc(C#N)c2)cc1OCCc1ccc2c(n1)NCCC2 (stereo not shown) | 6
Cn1nc(CC(CC(=O)O)c2cc(F)cc(C3(C(F)F)CC3)c2)cc1OCCc1ccc2c(n1)NCCC2 (stereo not shown) | 2.5

Note: attention shifts to another entry.
query: I have this molecule here, Cn1nc(CC(CC(=O)O)c2cc(Br)cc(C3(C(F)F)CC3)c2)cc1OCCc1ccc2c(n1)NCCC2 (stereo not shown) , and I need its recorded IC50.
result: 6.4

====

targetDesc: Recombinant human integrin ανβ1 (Homo sapiens, UniProt P05556+P06756)
Sequence (P05556 21-728 limits assumed, one chain of several): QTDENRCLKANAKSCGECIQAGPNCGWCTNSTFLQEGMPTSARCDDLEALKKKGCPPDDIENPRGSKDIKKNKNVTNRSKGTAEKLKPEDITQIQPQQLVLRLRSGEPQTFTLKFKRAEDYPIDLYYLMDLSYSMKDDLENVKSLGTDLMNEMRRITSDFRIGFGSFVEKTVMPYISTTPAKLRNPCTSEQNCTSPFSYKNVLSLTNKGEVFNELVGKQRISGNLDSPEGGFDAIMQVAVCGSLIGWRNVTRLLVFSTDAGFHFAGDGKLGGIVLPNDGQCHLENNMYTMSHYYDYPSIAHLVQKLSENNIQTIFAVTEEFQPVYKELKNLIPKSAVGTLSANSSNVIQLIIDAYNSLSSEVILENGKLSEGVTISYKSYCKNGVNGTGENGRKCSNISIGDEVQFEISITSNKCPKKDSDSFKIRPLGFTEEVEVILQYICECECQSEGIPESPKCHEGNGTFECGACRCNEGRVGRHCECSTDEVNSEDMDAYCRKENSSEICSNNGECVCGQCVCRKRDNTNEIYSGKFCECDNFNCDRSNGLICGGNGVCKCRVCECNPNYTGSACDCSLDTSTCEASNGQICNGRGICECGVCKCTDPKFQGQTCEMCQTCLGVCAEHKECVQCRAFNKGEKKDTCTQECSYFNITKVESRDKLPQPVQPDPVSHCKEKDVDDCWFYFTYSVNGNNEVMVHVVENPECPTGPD
experimentDescription: Solid Phase Receptor Assay (SPRA) for ανβ1 function
testSettings: plate-bound human fibronectin; read-out: αvβ1 SPRA IC50
Structures can show the parent of a compound that is named as a salt.
Let's look at some compounds and their measured pIC50.
Kindly note that pIC50 refers to -log10 of the concentration in mol/L and answer with the value alone.

Cn1nc(CC(CC(=O)O)c2cc(C#N)cc(C(C)(C)C(F)(F)F)c2)cc1OCCc1ccc2c(n1)NCCC2 (stereo not drawn) [Example 28, Trifluoroacetate] | 8.41
Cn1nc(CC(CC(=O)O)c2cc(Br)cc(OC(F)(F)F)c2)cc1OCCc1ccc2c(n1)NCCC2 (stereo not drawn) | 7.96
Cn1nc(CC(CC(=O)O)c2cc(F)cc(C(C)(C)C(F)(F)F)c2)cc1OCCc1ccc2c(n1)NCCC2 (stereo not drawn) | 8.36
COc1ccc([C@H](CC(=O)O)Cc2cc(OCCc3ccc4c(n3)NCCC4)n(C)n2)cc1F | 8.42

query: I have this compound here, Cn1nc(CC(CC(=O)O)c2cc(C(C)(C)C)ccc2Cl)cc1OCCc1ccc2c(n1)NCCC2 (stereo not drawn) [Example 43, Trifluoroacetate] , and I need its recorded pIC50.
result: 8.14

query: I have this compound here, Cn1nc(CC(CC(=O)O)c2cc(F)cc(Cl)c2)cc1OCCc1ccc2c(n1)NCCC2 (stereo not drawn) , and I need its recorded pIC50.
result: 8.30

query: I have this compound here, CC(C)(C)c1cc(Br)cc(C(CC(=O)O)Cc2cc(OCCc3ccc4c(n3)NCCC4)n(CC(F)(F)F)n2)c1 (stereo not drawn) [Example 41, Trifluoroacetate] , and I need its recorded pIC50.
result: 8.35

query: I have this compound here, Cn1nc(CC(CC(=O)O)c2cc(C#N)cc(C3(C(F)F)CC3)c2)cc1OCCc1ccc2c(n1)NCCC2 (stereo not drawn) , and I need its recorded pIC50.
result: 8.41

query: I have this compound here, Cc1ccc(C(C)(C)C)cc1C(CC(=O)O)Cc1cc(OCCc2ccc3c(n2)NCCC3)n(C)n1 (stereo not drawn) [Example 44, Trifluoroacetate] , and I need its recorded pIC50.
result: 7.85

query: I have this compound here, COc1ccc(C(C)C)cc1C(CC(=O)O)Cc1cc(OCCc2ccc3c(n2)NCCC3)n(C)n1 (stereo not drawn) [Example 39, Trifluoroacetate] , and I need its recorded pIC50.
result: 8.49

====

targetDesc: Recombinant human integrin ανβ3 (Homo sapiens, UniProt P05106+P06756)
experimentDescription: Solid Phase Receptor Assay (SPRA) for ανβ3 function
testSettings: plate-bound human vitronectin; read-out: αvβ3 SPRA IC50
Counter-ions that a name gives are not always drawn.
testReadout: IC50 (nM)
Your answer is read as nM, so omit the unit and give the number.

Cn1nc(CC(CC(=O)O)c2cc(C#N)cc(C(F)(F)F)c2)cc1OCCc1ccc2c(n1)NCCC2 (stereo not shown) [Example 12] | 4.3
Cn1nc(CC(CC(=O)O)c2cc(F)cc(C(C)(C)C)c2)cc1OCCc1ccc2c(n1)NCCC2 (stereo not shown) [Example 38] | 7.9
COc1ccc(C#N)cc1C(CC(=O)O)Cc1cc(OCCc2ccc3c(n2)NCCC3)n(C)n1 (stereo not shown) [Example 46, Trifluoroacetate] | 9.9

query: I have this compound here, Cn1nc(CC(CC(=O)O)c2cc(OC(F)(F)F)cc(C(C)(C)C)c2)cc1OCCc1ccc2c(n1)NCCC2 (stereo not shown) [Example 36] , and I need its recorded IC50.
result: 10

====

Let's look at some molecules and their measured pIC50.
targetDesc: Recombinant human integrin ανβ6 (Homo sapiens, UniProt P06756+P18564)
Sequence (P18564 22-707 limits assumed, one chain of several): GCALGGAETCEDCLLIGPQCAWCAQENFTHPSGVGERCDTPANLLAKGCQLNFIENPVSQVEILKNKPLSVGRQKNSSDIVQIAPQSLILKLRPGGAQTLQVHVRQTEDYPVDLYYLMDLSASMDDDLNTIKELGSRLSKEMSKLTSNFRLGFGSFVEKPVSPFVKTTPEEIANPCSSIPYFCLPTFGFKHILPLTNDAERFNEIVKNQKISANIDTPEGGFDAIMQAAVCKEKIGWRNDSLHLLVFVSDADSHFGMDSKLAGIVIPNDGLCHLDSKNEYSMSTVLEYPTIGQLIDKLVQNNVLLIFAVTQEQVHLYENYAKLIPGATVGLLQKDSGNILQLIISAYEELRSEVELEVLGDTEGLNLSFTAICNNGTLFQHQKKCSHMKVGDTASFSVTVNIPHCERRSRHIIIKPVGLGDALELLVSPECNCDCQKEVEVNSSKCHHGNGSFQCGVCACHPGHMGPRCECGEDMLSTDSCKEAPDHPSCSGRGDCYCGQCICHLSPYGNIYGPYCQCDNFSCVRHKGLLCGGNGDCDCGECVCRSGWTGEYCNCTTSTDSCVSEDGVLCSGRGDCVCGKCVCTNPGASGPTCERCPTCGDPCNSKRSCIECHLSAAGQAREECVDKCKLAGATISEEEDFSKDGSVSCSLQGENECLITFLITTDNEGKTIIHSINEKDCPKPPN
experimentDescription: Solid Phase Receptor Assay (SPRA) for ανβ6 function
testSettings: plate-bound human LAP; read-out: αvβ6 SPRA IC50
Where a name gives a salt, the structure may show the parent alone.
Kindly note that pIC50 refers to -log10 of the concentration in mol/L and answer with the value alone.

Previously resolved entries follow.
COc1cc(C(C)(C)C)ccc1C(CC(=O)O)Cc1cc(OCCc2ccc3c(n2)NCCC3)n(C)n1 (centres unmarked) | 6.89
Cn1nc(CC(CC(=O)O)c2cc(C#N)cc(C3(C(F)F)CC3)c2)cc1OCCc1ccc2c(n1)NCCC2 (centres unmarked) | 7.77
Cn1nc(CC(CC(=O)O)c2cc(C(C)(C)C)ccc2Cl)cc1OCCc1ccc2c(n1)NCCC2 (centres unmarked) [Example 43, Trifluoroacetate] | 6.10
COc1ccc(C(C)(C)C)cc1C(CC(=O)O)Cc1cc(OCCc2ccc3c(n2)NCCC3)n(C)n1 (centres unmarked) | 6.64
Cn1nc(CC(CC(=O)O)c2ccc(Br)c(F)c2)cc1OCCc1ccc2c(n1)NCCC2 (centres unmarked) | 6.72

query: I have this molecule here, Cn1nc(CC(CC(=O)O)c2cc(C#N)cc(C(F)(F)F)c2)cc1OCCc1ccc2c(n1)NCCC2 (centres unmarked) , and I need its recorded pIC50.
result: 7.57

query: I have this molecule here, CC(C)(C)c1cc(Br)cc(C(CC(=O)O)Cc2cc(OCCc3ccc4c(n3)NCCC4)n(CC(F)(F)F)n2)c1 (centres unmarked) [Example 41, Trifluoroacetate] , and I need its recorded pIC50.
result: 7.07

query: I have this molecule here, COc1ccc(C(=O)O)cc1C(CC(=O)O)Cc1cc(OCCc2ccc3c(n2)NCCC3)n(C)n1 (centres unmarked) [Example 48, Trifluoroacetate] , and I need its recorded pIC50.
result: 6.17

query: I have this molecule here, COCC1(c2cc(Cl)cc(C(CC(=O)O)Cc3cc(OCCc4ccc5c(n4)NCCC5)n(C)n3)c2)CCOCC1 (centres unmarked) , and I need its recorded pIC50.
result: 7.28

query: I have this molecule here, Cn1nc(CC(CC(=O)O)c2cc(C(F)(F)F)cc(C3(C(F)F)CC3)c2)cc1OCCc1ccc2c(n1)NCCC2 (centres unmarked) , and I need its recorded pIC50.
result: 7.42

query: I have this molecule here, Cn1nc(CC(CC(=O)O)c2ccc(F)c(C#N)c2)cc1OCCc1ccc2c(n1)NCCC2 (centres unmarked) , and I need its recorded pIC50.
result: 7.30

====

targetDesc: Recombinant human integrin ανβ6 (Homo sapiens, UniProt P06756+P18564)
experimentDescription: Solid Phase Receptor Assay (SPRA) for ανβ6 function
testSettings: plate-bound human LAP; read-out: αvβ6 SPRA IC50
Where a name gives a salt, the structure may show the parent alone.
Let's look at some compounds and their measured IC50.

query: I have this compound here, Cn1nc(CC(CC(=O)O)c2cc(F)cc(Cl)c2)cc1OCCc1ccc2c(n1)NCCC2 (stereo not shown) [Example 2] , and I need its recorded IC50.
result: 43 nM

query: I have this compound here, Cn1nc(CC(CC(=O)O)c2ccc3c(c2)OCCO3)cc1OCCc1ccc2c(n1)NCCC2 (stereo not shown) [Example 1] , and I need its recorded IC50.
result: 35 nM

query: I have this compound here, Cn1nc(CC(CC(=O)O)c2cc(C#N)cc(C(C)(C)C(F)(F)F)c2)cc1OCCc1ccc2c(n1)NCCC2 (stereo not shown) [Example 28, Trifluoroacetate] , and I need its recorded IC50.
result: 15 nM

query: I have this compound here, Cn1nc(CC(CC(=O)O)c2cc(C(C)(C)C)cc(C(F)(F)F)c2)cc1OCCc1ccc2c(n1)NCCC2 (stereo not shown) [Example 37] , and I need its recorded IC50.
result: 140 nM

query: I have this compound here, Cn1nc(CC(CC(=O)O)c2cccc(C(C)(C)C)c2)cc1OCCc1ccc2c(n1)NCCC2 (stereo not shown) [Example 49, Trifluoroacetate] , and I need its recorded IC50.
result: 94 nM

query: I have this compound here, Cn1nc(CC(CC(=O)O)c2cc(Br)cc(C3(C(F)F)CC3)c2)cc1OCCc1ccc2c(n1)NCCC2 (stereo not shown) [Example 19] , and I need its recorded IC50.
result: 45 nM

query: I have this compound here, COc1c(C(CC(=O)O)Cc2cc(OCCc3ccc4c(n3)NCCC4)n(C)n2)cccc1C(C)(C)C (stereo not shown) [Example 33] , and I need its recorded IC50.
result: 2400 nM
